This section presents molecules with their documented MIC values.
tested on: P. aeruginosa MP-3; experiment: MIC determination by CLSI broth dilution, P. aeruginosa MP-3; assay type: cell-based; conditions: Pseudomonas aeruginosa, MP3, strain MP-3
READOUT TYPE: MIC

• CO[C@]1(C)C[C@@H](C)CNC(CO)(CO)COC(=O)[C@H](C)C(=O)[C@H](C)[C@H]1O[C@@H]1OC(C)CC(N(C)C)C1O (stereo partly drawn) [Compound 212] = > 32 µg/mL
• CO[C@]1(C)C[C@@H](C)CN(C)[C@@H](CCCN2CCC[C@@H]2C(F)(F)F)COC(=O)C(C)(C)C(=O)[C@H](C)[C@H]1O[C@@H]1O[C@H](C)C[C@H](N(C)C)[C@H]1O [Compound 123] = > 32 µg/mL
• CCN1C[C@H](C)C[C@@](C)(OC)[C@H](O[C@@H]2O[C@H](C)C[C@H](N(C)C)[C@H]2O)[C@@H](C)C(=O)C(C)(C)C(=O)OC[C@H]1[C@H](O)CCN(C)CCO [Compound 225] = > 32 µg/mL

---

test system: K. pneumoniae MP-546; test: MIC determination by CLSI broth dilution, K. pneumoniae MP-546; format: cell-based; conditions: Klebsiella pneumoniae, MP546, CLSI broth dilution; strain MP-546
This section presents compounds with their documented MIC values.
READOUT TYPE: MIC

* CO[C@]1(C)C[C@@H](C)CN(C)[C@@H](CCCN2CCc3ccccc3C2)COC(=O)C(C)(C)C(=O)[C@H](C)[C@H]1O[C@@H]1O[C@H](C)C[C@H](N(C)C)[C@H]1O [Compound 120] | < 4 µg/mL
* CCCCCCCN1CCC([C@@H](O)[C@H]2COC(=O)C(C)(C)C(=O)[C@H](C)[C@@H](O[C@@H]3O[C@H](C)C[C@H](N(C)C)[C@H]3O)[C@](C)(OC)C[C@@H](C)CN2C)CC1 [Compound 22] | 4 to 32 µg/mL
* CO[C@]1(C)C[C@@H](C)CN(C)[C@@H](CN(C)C(=O)CN(C)C)COC(=O)C(C)(C)C(=O)[C@H](C)[C@H]1O[C@@H]1O[C@H](C)C[C@H](N(C)C)[C@H]1O [Compound 13] | 4 to 32 µg/mL
* CO[C@]1(C)C[C@@H](C)CN(C)[C@H](CC2CCN(CC(C)(C)C)CC2)C(C)(C)OC(=O)C(C)(C)C(=O)[C@H](C)[C@H]1O[C@@H]1O[C@H](C)C[C@H](N(C)C)[C@H]1O [Compound 36] | 4 to 32 µg/mL
* CO[C@]1(C)C[C@@H](C)CN(CC(C)C)[C@@H](CCCN2CCc3ccccc3C2)COC(=O)C(C)(C)C(=O)[C@H](C)[C@H]1O[C@@H]1O[C@H](C)C[C@H](N(C)C)[C@H]1O [Compound 141] | < 4 µg/mL
* CCCN1C[C@H](C)C[C@@](C)(OC)[C@H](O[C@@H]2O[C@H](C)C[C@H](N(C)C)[C@H]2O)[C@@H](C)C(=O)C(C)(C)C(=O)OC[C@@H]1CCCN1Cc2ccccc2C1 [Compound 126] | < 4 µg/mL
* C=C(C)C[C@]1(C)C(=O)OC[C@@H](CC2CCN(CCCCCCC)CC2)N(C)C[C@H](C)C[C@@](C)(OC)[C@H](O[C@@H]2O[C@H](C)C[C@H](N(C)C)[C@H]2O)[C@@H](C)C1=O [Compound 172] | 4 to 32 µg/mL
* CCN1C[C@H](C)C[C@@](C)(OC)[C@H](O[C@@H]2O[C@H](C)C[C@H](N(C)C)[C@H]2O)[C@@H](C)C(=O)C(C)(C)C(=O)OC[C@H]1[C@@H](CCN1CCCC1)OC [Compound 147] | 4 to 32 µg/mL
* CCC(O)C(C)CN1CCC(C[C@@H]2COC(=O)C(C)(C)C(=O)[C@H](C)[C@@H](O[C@@H]3O[C@H](C)C[C@H](N(C)C)[C@H]3O)[C@](C)(OC)C[C@@H](C)CN2C)CC1 (stereo partly shown) [Compound 35] | < 4 µg/mL
* CO[C@]1(C)C[C@@H](C)CN(C)[C@@H](CCCN(C)C(C)C)COC(=O)C(C)(C)C(=O)[C@H](C)[C@H]1O[C@@H]1O[C@H](C)C[C@H](N(C)C)[C@H]1O [Compound 11] | < 4 µg/mL
* CO[C@]1(C)C[C@@H](C)CN(C)[C@@H](CCCN(C)C2CC2)COC(=O)C(C)(C)C(=O)[C@H](C)[C@H]1O[C@@H]1O[C@H](C)C[C@H](N(C)C)[C@H]1O [Compound 90] | < 4 µg/mL
* CO[C@]1(C)C[C@@H](C)CN(C)[C@H](CC2CCN(CC3CCCCC3)CC2)COC(=O)C(C)(C)C(=O)[C@H](C)[C@H]1O[C@@H]1O[C@H](C)C[C@H](N(C)C)[C@H]1O [Compound 55] | < 4 µg/mL
* CO[C@]1(C)C[C@@H](C)CN(C)[C@@H](C(=O)N2CCNCC2)[C@H](C)OC(=O)C(C)(C)C(=O)[C@H](C)[C@H]1O[C@@H]1O[C@H](C)C[C@H](N(C)C)[C@H]1O [Compound 136] | > 32 µg/mL
* CO[C@]1(C)C[C@@H](C)CN(C)[C@@H](CN2CCN(S(=O)(=O)N(C)C)CC2)[C@H](C)OC(=O)C(C)(C)C(=O)[C@H](C)[C@H]1O[C@@H]1O[C@H](C)C[C@H](N(C)C)[C@H]1O [Compound 142] | > 32 µg/mL
* CO[C@]1(C)C[C@@H](C)CN(C)[C@H](CC2CCN(C(C)C)CC2)COC(=O)C(C)(C)C(=O)[C@H](C)[C@H]1O[C@@H]1O[C@H](C)C[C@H](N(C)C)[C@H]1O [Compound 52] | < 4 µg/mL
* CO[C@]1(C)C[C@@H](C)CN(C)[C@@H](CN2CCN(C(=O)C(F)(F)F)CC2)[C@H](C)OC(=O)C(C)(C)C(=O)[C@H](C)[C@H]1O[C@@H]1O[C@H](C)C[C@H](N(C)C)[C@H]1O [Compound 109] | > 32 µg/mL
* CO[C@]1(C)C[C@@H](C)CN(C)[C@@H](CN2CCN(S(C)(=O)=O)CC2)[C@H](C)OC(=O)C(C)(C)C(=O)[C@H](C)[C@H]1O[C@@H]1O[C@H](C)C[C@H](N(C)C)[C@H]1O [Compound 80] | > 32 µg/mL
* CO[C@]1(C)C[C@@H](C)CN(C)[C@@H](CCCN2CCNC(=O)C2)COC(=O)C(C)(C)C(=O)[C@H](C)[C@H]1O[C@@H]1O[C@H](C)C[C@H](N(C)C)[C@H]1O [Compound 115] | > 32 µg/mL
* CO[C@]1(C)C[C@@H](C)CN(C)[C@@H](CCCN(C)C2CCCC2)COC(=O)C(C)(C)C(=O)[C@H](C)[C@H]1O[C@@H]1O[C@H](C)C[C@H](N(C)C)[C@H]1O [Compound 99] | < 4 µg/mL
